target: Multimetal Binding Site (MBS) of Human Serum Albumin (HSA) (Homo sapiens); construct: purchased Sigma; test: Visible-range CD titration of Cu(II) binding at MBS of HSA; settings: [L] = 0.5 mM; Cu(II) and Z = 1 μM, HSA = 0.5 mM, pH 7.4
Sequence (P02768 25-609): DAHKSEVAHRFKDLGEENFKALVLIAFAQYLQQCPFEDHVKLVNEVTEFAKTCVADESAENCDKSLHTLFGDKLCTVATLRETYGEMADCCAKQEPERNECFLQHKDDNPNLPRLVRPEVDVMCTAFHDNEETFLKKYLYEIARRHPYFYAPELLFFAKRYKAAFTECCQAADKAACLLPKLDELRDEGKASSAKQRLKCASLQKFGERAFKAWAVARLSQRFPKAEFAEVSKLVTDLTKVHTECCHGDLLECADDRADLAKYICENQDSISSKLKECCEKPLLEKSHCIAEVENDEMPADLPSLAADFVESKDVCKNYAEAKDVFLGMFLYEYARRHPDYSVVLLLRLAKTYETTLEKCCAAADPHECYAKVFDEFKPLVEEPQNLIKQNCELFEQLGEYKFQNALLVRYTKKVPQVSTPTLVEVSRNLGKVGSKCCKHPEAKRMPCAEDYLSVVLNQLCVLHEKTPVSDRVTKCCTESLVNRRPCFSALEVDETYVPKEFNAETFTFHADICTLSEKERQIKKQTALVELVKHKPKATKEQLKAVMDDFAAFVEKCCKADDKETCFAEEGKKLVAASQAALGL
measurement-kind: CI (competitivity index)

> print(dat)
                                   compound                              study.target   val
1  NC(CO)(CO)CO [Tris, 2-amino-2(hydroxymethyl)-1,3-propanediol]  Multimetal Binding Site (MBS) of Human Serum Albumin (HSA) (Homo sapiens)  7.74
2  O=P(O)(O)O [Phosphate, sodium phosphate]  Multimetal Binding Site (MBS) of Human Serum Albumin (HSA) (Homo sapiens)  8.04
3         O=S(=O)(O)CCN1CCN(CCO)CC1 [Hepes]  Multimetal Binding Site (MBS) of Human Serum Albumin (HSA) (Homo sapiens)  7.71
4                        [Cl-].[Na+] [NaCl]  Multimetal Binding Site (MBS) of Human Serum Albumin (HSA) (Homo sapiens)  7.62
